# interaction score annotations
Target: T1, 4H683-bA
T1 chain: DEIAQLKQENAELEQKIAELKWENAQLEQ
Test: two-hybrid library CCNG1;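 also: natural log of median RNA to DNA barcode read ratio; higher means stronger binding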

Example binders with recorded interaction score:
binder: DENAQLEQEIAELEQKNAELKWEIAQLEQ [4H1081-bA]
observed measurement: -0.217
//
binder: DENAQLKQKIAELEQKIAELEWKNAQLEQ [4H1831-bA]
observed measurement: -1.5
//
binder: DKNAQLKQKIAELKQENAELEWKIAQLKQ [4H3926-bA]
observed measurement: -0.786
//
binder: DEIAQLKQEIAELEQKNAELKWKNAQLEQ [4H575-bA]
observed measurement: -0.37
//
binder: DKIAQLKQKNAELKQEIAELEWEIAQLKQ [4H3010-bA]
observed measurement: 0.693
//
binder: DEIAQLEQKIAELKQENAELKWEIAQLKQ [4H346-bA]
observed measurement: 0.357

Prompt: // interaction score lookup, key: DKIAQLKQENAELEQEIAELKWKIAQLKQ [4H2702-bA]
Response: -1.86
